target: HIV-1 protease (Human immunodeficiency virus type 1 group M subtype B, UniProt P04585); construct: The protease (or proteinase), consisting of only 99 amino acids, is among the smallest enzymes known; test: In vitro HIV protease inhibitory assay (HIV Protease FITC Assay); assay type: biochemical; settings: HIV-1 Dose 3.300 uM; read-out: HIV-1 Protease % Inhib
Listed here: items and their measured inhibition at 3.3 µM.

Compound: CCC(Cc1ccccc1)c1cc(O)c(C(c2cccc(NS(=O)(=O)c3cc(Cl)ccc3Cl)c2)C2CC2)c(=O)o1 (stereo not drawn)
Measurement Target: HIV-1 protease (Human immunodeficiency virus type 1 group M subtype B, UniProt P04585)
Measurement Units: %
Censoring Sign: =
inhibition at 3.3 µM: 71.9
--
Compound: O=C1OC(CCc2ccccc2)(CCc2ccccc2)CC(O)=C1C(C=Cc1ccccc1)c1ccccc1 (stereo not drawn)
Measurement Target: HIV-1 protease (Human immunodeficiency virus type 1 group M subtype B, UniProt P04585)
Measurement Units: %
Censoring Sign: =
inhibition at 3.3 µM: 54.1
--
Compound: O=c1oc(CCCF)cc(O)c1C(c1ccccc1)C1CC1 (stereo not drawn)
Measurement Target: HIV-1 protease (Human immunodeficiency virus type 1 group M subtype B, UniProt P04585)
Measurement Units: %
Censoring Sign: =
inhibition at 3.3 µM: 26.6
--
Compound: CCC(Cc1ccccc1)c1cc(O)c(C(c2cccc(NS(=O)(=O)c3ccc(C(C)(C)C)cc3)c2)C2CC2)c(=O)o1 (stereo not drawn)
Measurement Target: HIV-1 protease (Human immunodeficiency virus type 1 group M subtype B, UniProt P04585)
Measurement Units: %
Censoring Sign: =
inhibition at 3.3 µM: 60.6
--
Compound: O=c1oc(CCc2ccc(Br)cc2)cc(O)c1C(c1ccccc1)C1CC1 (stereo not drawn)
Measurement Target: HIV-1 protease (Human immunodeficiency virus type 1 group M subtype B, UniProt P04585)
Measurement Units: %
Censoring Sign: =
inhibition at 3.3 µM: 37.1
--
Compound: C=CC(C1=C(O)CC2(CCCCCC2)OC1=O)c1ccccc1 (stereo not drawn)
Measurement Target: HIV-1 protease (Human immunodeficiency virus type 1 group M subtype B, UniProt P04585)
Measurement Units: %
Censoring Sign: =
inhibition at 3.3 µM: 65.6
--
Compound: CCC(Cc1ccccc1)c1cc(O)c(C(c2cccc(NC(=O)Nc3ccc(OC)cc3)c2)C2CC2)c(=O)o1 (stereo not drawn)
Measurement Target: HIV-1 protease (Human immunodeficiency virus type 1 group M subtype B, UniProt P04585)
Measurement Units: %
Censoring Sign: =
inhibition at 3.3 µM: 66
--
Compound: CCC(Cc1cccc(Br)c1)c1cc(O)c(C(c2ccccc2)C2CC2)c(=O)o1 (stereo not drawn)
Measurement Target: HIV-1 protease (Human immunodeficiency virus type 1 group M subtype B, UniProt P04585)
Measurement Units: %
Censoring Sign: =
inhibition at 3.3 µM: 76.2
--
Compound: CCCC1(CCCc2ccccc2)CC(O)=C(C(CCc2ccccc2)c2ccccc2)C(=O)O1 (stereo not drawn)
Measurement Target: HIV-1 protease (Human immunodeficiency virus type 1 group M subtype B, UniProt P04585)
Measurement Units: %
Censoring Sign: =
inhibition at 3.3 µM: 79.8
--
Compound: CCC(CCN1CCOCC1)c1cc(O)c(C(c2ccccc2)C2CC2)c(=O)o1 (stereo not drawn)
Measurement Target: HIV-1 protease (Human immunodeficiency virus type 1 group M subtype B, UniProt P04585)
Measurement Units: %
Censoring Sign: <
inhibition at 3.3 µM: 10
--
Compound: CCC(C1=C(O)CC2(CCC(=O)CC2)OC1=NO)c1ccccc1 (stereo not drawn)
Measurement Target: HIV-1 protease (Human immunodeficiency virus type 1 group M subtype B, UniProt P04585)
Measurement Units: %
Censoring Sign: =
inhibition at 3.3 µM: 14.8
--
Compound: CCCC1(Cc2ccccc2)CC(O)=C(C(CCc2ccccc2)c2ccccc2)C(=O)O1 (stereo not drawn)
Measurement Target: HIV-1 protease (Human immunodeficiency virus type 1 group M subtype B, UniProt P04585)
Measurement Units: %
Censoring Sign: =
inhibition at 3.3 µM: 74.2
--
Compound: C=CC(C1=C(O)CC(CCc2ccccc2)(CC(C)C)OC1=O)c1ccccc1 (stereo not drawn)
Measurement Target: HIV-1 protease (Human immunodeficiency virus type 1 group M subtype B, UniProt P04585)
Measurement Units: %
Censoring Sign: =
inhibition at 3.3 µM: 83.1
--
Compound: CCC(CC1CCCOC1)c1cc(O)c(C(CC)c2ccccc2)c(=O)o1 (stereo not drawn)
Measurement Target: HIV-1 protease (Human immunodeficiency virus type 1 group M subtype B, UniProt P04585)
Measurement Units: %
Censoring Sign: =
inhibition at 3.3 µM: 87.9
--
Compound: CCC(Cc1cccc(C(F)(F)F)c1)c1cc(O)c(C(c2ccccc2)C2CC2)c(=O)o1 (stereo not drawn)
Measurement Target: HIV-1 protease (Human immunodeficiency virus type 1 group M subtype B, UniProt P04585)
Measurement Units: %
Censoring Sign: =
inhibition at 3.3 µM: 78
--
Compound: C=CC(C1=C(O)CC(CCC)(CCc2ccccc2)OC1=O)c1ccccc1 (stereo not drawn)
Measurement Target: HIV-1 protease (Human immunodeficiency virus type 1 group M subtype B, UniProt P04585)
Measurement Units: %
Censoring Sign: =
inhibition at 3.3 µM: 102
--
Compound: C=CC(C1=C(O)CC2(CCOCC2)OC1=O)c1ccccc1 (stereo not drawn)
Measurement Target: HIV-1 protease (Human immunodeficiency virus type 1 group M subtype B, UniProt P04585)
Measurement Units: %
Censoring Sign: =
inhibition at 3.3 µM: 10.8
--
Compound: C=CC(C1=C(O)CC2(CCCC2)OC1=O)c1ccccc1 (stereo not drawn)
Measurement Target: HIV-1 protease (Human immunodeficiency virus type 1 group M subtype B, UniProt P04585)
Measurement Units: %
Censoring Sign: =
inhibition at 3.3 µM: 46.8
--
Compound: CC(C)Cc1cc(O)c(C(c2ccccc2)C2CC2)c(=O)o1 (stereo not drawn)
Measurement Target: HIV-1 protease (Human immunodeficiency virus type 1 group M subtype B, UniProt P04585)
Measurement Units: %
Censoring Sign: =
inhibition at 3.3 µM: 86.6
--
Compound: O=c1oc(CC(O)c2ccc(Cl)cc2)cc(O)c1C(c1ccccc1)C1CC1 (stereo not drawn)
Measurement Target: HIV-1 protease (Human immunodeficiency virus type 1 group M subtype B, UniProt P04585)
Measurement Units: %
Censoring Sign: =
inhibition at 3.3 µM: 73.5
--
Compound: CCC(CC1COc2ccccc2O1)c1cc(O)c(C(c2ccccc2)C2CC2)c(=O)o1 (stereo not drawn)
Measurement Target: HIV-1 protease (Human immunodeficiency virus type 1 group M subtype B, UniProt P04585)
Measurement Units: %
Censoring Sign: =
inhibition at 3.3 µM: 81.4
--
Compound: CCC(Cc1ccccc1)c1cc(O)c(C(c2cccc(NS(=O)(=O)c3cccc4cccnc34)c2)C2CC2)c(=O)o1 (stereo not drawn)
Measurement Target: HIV-1 protease (Human immunodeficiency virus type 1 group M subtype B, UniProt P04585)
Measurement Units: %
Censoring Sign: =
inhibition at 3.3 µM: 106
--
Compound: CCC(Cc1ccc(C(F)(F)F)cc1)c1cc(O)c(C(c2ccccc2)C2CC2)c(=O)o1 (stereo not drawn)
Measurement Target: HIV-1 protease (Human immunodeficiency virus type 1 group M subtype B, UniProt P04585)
Measurement Units: %
Censoring Sign: =
inhibition at 3.3 µM: 78.2
--
Compound: O=C1OC(CCc2ccccc2)(CCc2ccccc2)CC(O)=C1C(c1ccccc1)c1ccccc1
Measurement Target: HIV-1 protease (Human immunodeficiency virus type 1 group M subtype B, UniProt P04585)
Measurement Units: %
Censoring Sign: =
inhibition at 3.3 µM: 61.6

====

biological target: HIV-1 protease (Human immunodeficiency virus type 1 group M subtype B, UniProt P04585); construct: The protease (or proteinase), consisting of only 99 amino acids, is among the smallest enzymes known; experiment: In vitro HIV protease inhibitory assay (HIV Protease FITC Assay); type: biochemical; conditions: HIV-1 Dose 100.000 uM; read-out: HIV-1 Protease % Inhib

Compound: CCC(CCc1ccccc1)c1cc(O)c(C(c2ccccc2)C2CC2)c(=O)o1 (stereo not shown)
inhibition at 100 µM: 90.7%
--
Compound: CCC(c1ccccc1)c1c(O)cc(CCCc2ccccc2)oc1=O (stereo not shown)
inhibition at 100 µM: 96.6%
--
Compound: COCCOCCOCCc1c(C(CC2CC2)CC2CC2)oc(=O)c(C(c2ccccc2)C2CC2)c1O (stereo not shown)
inhibition at 100 µM: 46.5%
--
Compound: CCC(c1ccccc1)c1c(O)cc(C(CC2CC2)CC2CC2)oc1=O (stereo not shown)
inhibition at 100 µM: 90.2%
--
Compound: C=CCCc1cc(O)c(C(c2ccccc2)C2CC2)c(=O)o1 (stereo not shown)
inhibition at 100 µM: 110%
--
Compound: CCC(Cc1csc(-c2ccc(Cl)cc2)n1)c1cc(O)c(C(c2ccccc2)C2CC2)c(=O)o1 (stereo not shown)
inhibition at 100 µM: 102%
--
Compound: O=c1oc(CCC2CC2)cc(O)c1C(c1ccccc1)C1CC1 (stereo not shown)
inhibition at 100 µM: 84%
--
Compound: CCC(c1ccccc1)c1c(O)cc(CCc2cccc3ccccc23)oc1=O (stereo not shown)
inhibition at 100 µM: 86.8%
--
Compound: CCC1(CC)CC(=O)C(CCCc2ccccc2)C(=O)O1 (stereo not shown)
inhibition at 100 µM: 90.5%
--
Compound: CCC(CC)c1cc(O)c(C(c2ccccc2)C2CC2)c(=O)o1 (stereo not shown)
inhibition at 100 µM: 108%
--
Compound: CCC(C1=C(O)CC2(CCC3(CC2)OCCO3)OC1=O)c1ccccc1 (stereo not shown)
inhibition at 100 µM: 55.4%
--
Compound: CCC(CCC1CCCCC1)c1cc(O)c(C(c2ccccc2)C2CC2)c(=O)o1 (stereo not shown)
inhibition at 100 µM: 41%
--
Compound: O=c1oc(CC(O)c2cccc(Cl)c2)cc(O)c1C(c1ccccc1)C1CC1 (stereo not shown)
inhibition at 100 µM: 113%
--
Compound: CC(C)(C)OC(=O)CCc1cc(O)c(C(c2ccccc2)C2CC2)c(=O)o1 (stereo not shown)
inhibition at 100 µM: 105%
--
Compound: CCC(C1=C(O)CC2(CCC(=O)CC2)OC1=O)c1ccccc1 (stereo not shown)
inhibition at 100 µM: 94.8%
--
Compound: CCC(c1ccccc1)c1c(O)cc(CCC2CC2)oc1=O (stereo not shown)
inhibition at 100 µM: 90.5%
--
Compound: CCC(Cc1ccccc1)c1cc(O)c(C(c2ccccc2)C2CC2)c(=O)o1 (stereo not shown)
inhibition at 100 µM: 55.3%
--
Compound: CCC(CC)c1oc(=O)c(C(c2ccccc2)C2CC2)c(O)c1CCOCCOC (stereo not shown)
inhibition at 100 µM: 84.3%
--
Compound: CCC(Cc1cccc2ccccc12)c1cc(O)c(C(CC)c2ccccc2)c(=O)o1 (stereo not shown)
inhibition at 100 µM: 84.3%
--
Compound: CCC(c1ccccc1)c1c(O)c(Br)c(CCc2ccccc2)oc1=O (stereo not shown)
inhibition at 100 µM: 108%
--
Compound: C=CC(c1ccccc1)c1c(O)cc(C)oc1=O (stereo not shown)
inhibition at 100 µM: 43.5%
--
Compound: O=c1oc(CCc2ccc(Cl)cc2)cc(O)c1C(c1ccccc1)C1CC1 (stereo not shown)
inhibition at 100 µM: 97.8%
--
Compound: COCCOCCCc1cc(O)c(C(c2ccccc2)C2CC2)c(=O)o1 (stereo not shown)
inhibition at 100 µM: 105%
--
Compound: C=CC(c1ccccc1)C1C(=O)CC(C)(c2ccccc2)OC1=O (stereo not shown)
inhibition at 100 µM: 67.9%
--
Compound: CCC(Cc1ccc(Cl)s1)c1cc(O)c(C(c2ccccc2)C2CC2)c(=O)o1 (stereo not shown)
inhibition at 100 µM: 113%
--
Compound: CCC(CCCc1ccccc1)c1cc(O)c(C(c2ccccc2)C2CC2)c(=O)o1 (stereo not shown)
inhibition at 100 µM: 79.3%
--
Compound: O=c1oc(CCc2ccccc2)cc(O)c1C(c1ccccc1)C1CC1 (stereo not shown)
inhibition at 100 µM: 105%
--
Compound: CCC(c1ccccc1)c1c(O)cc(CCc2ccccc2F)oc1=O (stereo not shown)
inhibition at 100 µM: 109%
--
Compound: O=c1oc(CCc2ccccn2)cc(O)c1C(c1ccccc1)C1CC1 (stereo not shown)
inhibition at 100 µM: 98.3%
--
Compound: CCC(Cc1ccc(Cl)cc1)c1cc(O)c(C(c2ccccc2)C2CC2)c(=O)o1 (stereo not shown)
inhibition at 100 µM: 111%
--
Compound: O=c1oc(CC(O)c2ccsc2)cc(O)c1C(c1ccccc1)C1CC1 (stereo not shown)
inhibition at 100 µM: 120%
--
Compound: CCC(Cc1ccc2ccccc2c1)c1cc(O)c(C(CC)c2ccccc2)c(=O)o1 (stereo not shown)
inhibition at 100 µM: 73.6%
--
Compound: O=c1oc(CCC2OCCO2)cc(O)c1C(c1ccccc1)C1CC1 (stereo not shown)
inhibition at 100 µM: 107%
--
Compound: CCC(Cc1ccccc1)c1cc(O)c(C(CC)c2ccccc2)c(=O)o1 (stereo not shown)
inhibition at 100 µM: 72%
--
Compound: C=CCC(CC=C)c1cc(O)c(C(c2ccccc2)C2CC2)c(=O)o1 (stereo not shown)
inhibition at 100 µM: 110%
--
Compound: CCC(CC1CCCCO1)c1cc(O)c(C(c2ccccc2)C2CC2)c(=O)o1 (stereo not shown)
inhibition at 100 µM: 123%
--
Compound: C=CC(c1ccccc1)c1c(O)cc(CCc2ccccc2)oc1=O (stereo not shown)
inhibition at 100 µM: 107%
